# System: HepG2 cells
# Test Name: MTT cytotoxicity testing on HepG2
# Type: cell-based, human
# Conditions: HepG2, 24 h exposure, MTT; mean ± S.E.
Parameter Measured: CC50 (µM)

[[record]]
compound = "CC[C@H](C)[C@H]1O[C@]2(CC[C@@H]1C)C[C@@H]1C[C@@H](C/C=C(\\C)[C@@H](O[C@H]3C[C@H](OC)[C@@H](O[C@H]4C[C@H](OC)[C@@H](O)[C@H](C)O4)[C@H](C)O3)[C@@H](C)/C=C/C=C3\\CO[C@@H]4[C@H](O)C(C)=C[C@@H](C(=O)O1)[C@]34O)O2 [IVM, ivermectin, reference compound]"
system_under_test = "HepG2 cells"
data_value = 14.9

